System: K24384-001-R-PDC complex spheroids, viability
Experiment: Anticancer human tumor K24384-001-R-PDC patient-derived pancreatic adenocarcinoma cell line growth inhibition [GQUAD]
Settings: second compound 0.316 µM; first compound 1 µM; stronger effect = lower value
# key: entry, value: viability, T/C

Worked cases, answers included:
# molecule, viability, T/C
rows = [
    ("Cc1cccc(N(C)C(=O)C2C(O)CCN2c2nc(C)cc(C(F)(F)F)c2C#N)c1 (centres undefined) + Cc1cnc(CNC(=O)c2c(=O)c3ccc(N4CCCN(C)CC4)nc3n3c2sc2ccccc23)cn1", "57.4%"),
    ("O=C(c1cc(Cc2n[nH]c(=O)c3ccccc23)ccc1F)N1CCN(C(=O)C2CC2)CC1 + CN(C)c1ccc(Nc2c3ccc(NC(=O)CCN4CCCC4)cc3nc3cc(NC(=O)CCN4CCCC4)ccc23)cc1", "81.2%"),
    ("C=CC(=O)N1CCN(c2nc(=O)n(-c3c(C)ccnc3C(C)C)c3nc(-c4c(O)cccc4F)c(F)cc23)C(C)C1 (centres undefined) + Cc1cnc(CNC(=O)c2c(=O)c3ccc(N4CCCN(C)CC4)nc3n3c2sc2ccccc23)cn1", "65.5%"),
]

Below: the item to evaluate.
Please report the measured viability, T/C for O=C(NO)c1cnc(N2CCN(S(=O)(=O)c3ccc4ccccc4c3)CC2)nc1 + Cc1[nH]c2ccc(F)cc2c1-c1nc2c3cccnc3c3ncccc3c2[nH]1
40.5%

----------
Tested on: K24384-001-R-PDC complex spheroids, viability
Assay: Anticancer human tumor K24384-001-R-PDC cell line growth inhibition [GQUAD];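 further: spheroids exposed to compounds for seven days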
Settings: second compound 0.316 µM; first compound 1 µM; stronger effect = lower value
measurement-label: viability, T/C (%)
Just the number please, in %, no unit attached.

# molecule, measurement-label, readout-units, assay-result
records = [
    ("CC(=O)O[C@H]1C(=O)[C@@]2(C)[C@H]([C@H](OC(=O)c3ccccc3)[C@]3(O)C[C@H](OC(=O)[C@H](O)[C@@H](NC(=O)c4ccccc4)c4ccccc4)C(C)=C1C3(C)C)[C@]1(OC(C)=O)CO[C@@H]1C[C@@H]2O + Cc1[nH]c2ccc(F)cc2c1-c1nc2c3cccnc3c3ncccc3c2[nH]1", "viability, T/C", "%", 22.3),
]

Below: the item to evaluate.
Check K24384-001-R-PDC complex spheroids, viability data and give viability, T/C for C=CCn1c(=O)c2cnc(Nc3ccc(N4CCN(C)CC4)cc3)nc2n1-c1cccc(C(C)(C)O)n1 + Cc1cnc(CNC(=O)c2c(=O)c3ccc(N4CCCN(C)CC4)nc3n3c2sc2ccccc23)cn1 .
26.7

----------
# key: entry, value: pIC50
Test system: K24384-001-R-PDC complex spheroids, viability
Assay: Anticancer human tumor K24384-001-R-PDC cell line growth inhibition [GQUAD];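 further: spheroids exposed to compounds for seven days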
Conditions: curve of first compound; second compound 3.16 µM
pIC50: −log10 of the molar value.

Worked cases, answers included:
# compound, assay-result
measured = [
    ("COc1ncnc(C2CC2)c1-c1ncc2cnn(Cc3ccc(-c4nc(C(F)(F)F)cn4C(C)C)cc3)c2n1 + Cc1cnc(CNC(=O)c2c(=O)c3ccc(N4CCCN(C)CC4)nc3n3c2sc2ccccc23)cn1", "> 7.50"),
    ("C#Cc1c(F)ccc2cc(O)cc(-c3ncc4c(N5CC6CCC(C5)N6)nc(OCC56CCCN5CC(F)C6)nc4c3F)c12 (configuration not stated) + Cc1cnc(CNC(=O)c2c(=O)c3ccc(N4CCCN(C)CC4)nc3n3c2sc2ccccc23)cn1", "> 7.50"),
    ("COc1ncnc(C2CC2)c1-c1ncc2cnn(Cc3ccc(-c4nc(C(F)(F)F)cn4C(C)C)cc3)c2n1 + Cc1[nH]c2ccc(F)cc2c1-c1nc2c3cccnc3c3ncccc3c2[nH]1", "< 5.00"),
    ("C=CCn1c(=O)c2cnc(Nc3ccc(N4CCN(C)CC4)cc3)nc2n1-c1cccc(C(C)(C)O)n1 + Cc1[nH]c2ccc(F)cc2c1-c1nc2c3cccnc3c3ncccc3c2[nH]1", 6.72),
    ("O=C(c1cc(Cc2n[nH]c(=O)c3ccccc23)ccc1F)N1CCN(C(=O)C2CC2)CC1 + CN(C)c1ccc(Nc2c3ccc(NC(=O)CCN4CCCC4)cc3nc3cc(NC(=O)CCN4CCCC4)ccc23)cc1", "< 5.00"),
    ("Cn1ncnc1[C@H]1c2n[nH]c(=O)c3cc(F)cc(c23)N[C@@H]1c1ccc(F)cc1 + Cc1[nH]c2ccc(F)cc2c1-c1nc2c3cccnc3c3ncccc3c2[nH]1", "< 6.50"),
]

Below: the item to evaluate.
Please report the measured pIC50 for Cc1[nH]c2ccccc2c1CCNCc1ccc(/C=C/C(=O)NO)cc1 + Cc1[nH]c2ccc(F)cc2c1-c1nc2c3cccnc3c3ncccc3c2[nH]1
6.89

FYI, the data here is from PubChem BioAssay AID2060483.
